# target.under.test: MAGI1_2, Q96QZ7
# Sequence (Q96QZ7 456-580): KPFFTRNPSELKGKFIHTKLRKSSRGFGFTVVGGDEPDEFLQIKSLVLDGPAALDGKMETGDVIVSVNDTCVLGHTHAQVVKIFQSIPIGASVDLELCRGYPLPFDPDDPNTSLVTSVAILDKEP
# protocol.notes: holdup assay
# Design: key: below the threshold = too weak to quantify, mostly under pKd 3.1 to 4
# measurement.conditions: plain residues with an end cap or a label only (N-terminal biotin on a linker: ahx)
property.name: pKd

For orientation, consider the following solved cases.
VNENQKEYFF [CNTNAP4, Q9C0A0]: below the threshold
SKKNELFSNL [NHERF1, O14745]: below the threshold
KEYDDELTFF [USH1C, Q9Y6N9]: below the threshold
PKMKLNETSF [SHKBP1, Q8TBC3]: below the threshold
YNSFLSVTTV [PDZRN3, Q9UPQ7]: 3.99
HSATSVHTSV [MTMR1, Q13613]: 3.52

Given the binder AKPQPVDSWV [ARVCF, O00192] , what is its reported pKd?
below the threshold

Here is the next binder: SAPATLSSRA [PDLIM2, Q96JY6]
below the threshold

Here is the next binder: KDECVIATEV [DLL1, O00548]
below the threshold

Here is the next binder: ADENEQVSAV [RAPGEF6, Q8TEU7]
3.83
